Data origin, for the record: patent US20240368267A1

Recorded kon, one value per entry.
Biological target: T1, human IL-6 (human, UniProt P05231 30-212)
T1 construct: also called interleukin-6
T1 sequence (P05231 30-212 limits assumed): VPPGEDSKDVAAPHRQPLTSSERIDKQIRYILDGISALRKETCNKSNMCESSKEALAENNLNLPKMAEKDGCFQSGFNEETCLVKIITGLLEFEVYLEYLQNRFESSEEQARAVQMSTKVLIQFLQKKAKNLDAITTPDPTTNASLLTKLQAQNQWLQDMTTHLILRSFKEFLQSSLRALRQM
Test: SPR (Biacore T200), antibody from cell supernatant captured on Protein A, IL-6 flowed over, 37 C
MEASUREMENT_TYPE: kon (M⁻¹ s⁻¹)

1. anti-IL-6 antibody, heavy chain S35A, G66D / light chain WT (antibody, human IgG1, V domains shown, Derived as m2; Engineered human IgG1) VH: EVQLVESGGGLVQPGGSLRLSCAASGFTFSPFAMAWVRQAPGKGLEWVAKISPGGSWTYYSDTVTDRFTFSLDTSKSTAYLQMNSLRAEDTAVYYCARQLWGYYALDIWGQGTLVTVSS VL: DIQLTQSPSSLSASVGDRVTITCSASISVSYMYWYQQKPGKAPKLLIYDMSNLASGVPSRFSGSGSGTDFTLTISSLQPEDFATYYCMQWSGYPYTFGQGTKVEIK :: 1.65e+06
2. anti-IL-6 antibody, heavy chain I51F, G66D / light chain WT (antibody, human IgG1, V domains shown, Derived as m2; Engineered human IgG1) VH: EVQLVESGGGLVQPGGSLRLSCAASGFTFSPFAMSWVRQAPGKGLEWVAKFSPGGSWTYYSDTVTDRFTFSLDTSKSTAYLQMNSLRAEDTAVYYCARQLWGYYALDIWGQGTLVTVSS VL: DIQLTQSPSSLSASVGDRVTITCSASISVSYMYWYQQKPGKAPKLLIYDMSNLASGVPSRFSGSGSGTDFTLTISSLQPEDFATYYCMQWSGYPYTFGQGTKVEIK :: 1.36e+06
3. anti-IL-6 antibody, heavy chain T65L, G66D / light chain WT (antibody, human IgG1, V domains shown, Derived as m2; Engineered human IgG1) VH: EVQLVESGGGLVQPGGSLRLSCAASGFTFSPFAMSWVRQAPGKGLEWVAKISPGGSWTYYSDTVLDRFTFSLDTSKSTAYLQMNSLRAEDTAVYYCARQLWGYYALDIWGQGTLVTVSS VL: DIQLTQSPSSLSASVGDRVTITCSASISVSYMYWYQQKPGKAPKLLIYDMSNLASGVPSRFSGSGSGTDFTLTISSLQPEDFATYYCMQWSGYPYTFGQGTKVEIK :: 1.77e+06
